Reported IC50 values, human SIRT1 (Homo sapiens (Human)).
Test Readout: IC50 (µM)

The examples below pair each entry with its known result.
Oc1cc(O)c2c(-c3ccc(F)cc3)coc2c1 ... 192
Oc1cc(O)c2cc(-c3cc(O)c(O)c(O)c3)oc2c1 ... 1.84
Oc1cc(O)c2cc(-c3cc(F)cc(F)c3)oc2c1 ... 36.7

1. Oc1cc(O)c2c(-c3cc(F)cc(F)c3)c(Br)oc2c1
2. Oc1cc(O)c2c(-c3cc(F)cc(F)c3)coc2c1
Q. Given 1 and 2 , report the one with the higher recorded IC50. Select an item and report its label.
A. 2
(2: 274 µM, 1: 76.3 µM)

====

molecular target: UniProt Q96EB6; experiment: SIRT1 in vitro deacetylation assay (Fluor-de-Lys, acetylated AMC-labeled p53 peptide); format: biochemical; conditions: SIRT1 activation; 50 μM substrate peptide, 500 μM NAD+, 30° C., 2 h; read-out: Max (%), percentage of maximum activation achieved
Test Readout: Emax (%)

Some solved entries appear below for comparison.
Oc1cc(O)cc(-c2cc3c(O)cc(O)cc3o2)c1 [Example 8] ... 407
Oc1ccc(-c2cc3c(O)cc(O)cc3o2)cc1 [Example 9] ... 444
Oc1ccc(C=Cc2cc(O)cc(O)c2)cc1 [Resveratrol, resveratrol, reference compound] ... 475
Oc1cc(O)cc(-c2cc3ccc(O)cc3o2)c1 [reference compound] ... 451

1. Oc1cc(O)c2cc(-c3ccc(F)cc3)oc2c1 [Example 10, 2-(4-fluorophenyl)-1-benzofuran-4,6-diol]
2. COc1ccc(-c2cc3c(O)cc(O)cc3o2)c(OC)n1 [Example 12]
Q. Of 1 and 2 , which carries the smaller reported Emax figure? Give the chosen item's label as your response.
A. 2
